assaySystem: glucocorticoid receptor (Homo sapiens)
Construct: expressed in transfected cells
Sequence (P04150 524-758 limits assumed): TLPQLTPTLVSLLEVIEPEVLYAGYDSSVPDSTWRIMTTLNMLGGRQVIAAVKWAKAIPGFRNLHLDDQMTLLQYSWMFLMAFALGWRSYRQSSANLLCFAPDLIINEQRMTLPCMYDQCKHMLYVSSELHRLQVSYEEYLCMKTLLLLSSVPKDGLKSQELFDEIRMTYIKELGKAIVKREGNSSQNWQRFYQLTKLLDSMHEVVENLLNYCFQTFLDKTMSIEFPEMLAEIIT
protocolDescription: Agonistic mode of action on the glucocorticoid receptor (CHO-Gal4/GR luciferase reporter cell line)
Type: cell-based
measurementConditions: range class observed in the agonistic assay or the antagonistic assay (CHO-Gal4/GR reporter cells); table does not say which mode applies per example
# IC50 or EC50 (agonist or antagonist mode not specified) per record follows

Cc1nnc2n1-c1c(cc(C(F)F)c(-c3cc(F)cc4c3ccn4S(C)(=O)=O)c1F)NC2(C)C; 1000 to 15000 nM

For the compound CCc1nnc2n1-c1c(cc(F)c(-c3cccc4cc[nH]c34)c1F)NC2(C)C , what IC50 or EC50 (agonist or antagonist mode not specified) is on record?
100 to 1000 nM

What does the record list as IC50 or EC50 (agonist or antagonist mode not specified) for Cc1nnc2n1-c1c(cc(F)c(-c3cccc4c3ccn4C3CC3)c1C(F)F)NC2(C)C ?
100 to 1000 nM

Entry Cc1c[nH]c2c(-c3ccc4c(c3C(F)(F)F)-n3c(C)nnc3C(C)(C)N4)cccc12 has what IC50 or EC50 (agonist or antagonist mode not specified)?
100 to 1000 nM
